# assay.summary: T. cruzi intracellular proliferation inhibitors, primary screen, cell-based, beta-gal Tulahuen parasites, NIH3T3 host, luminescence (AID 624255)
# protocol.conditions: T. cruzi beta-gal in NIH3T3, GalScreen luminescence, 90 h; at 8.34 µM; hits give high values
About 4,600 (6%) of roughly 77,000 compounds were called active. About 1% were inconclusive and are not listed. What follows is part of a selection rich in actives, with near analogues and random picks from the rest.

# smiles.entry, inhibition, %
records = [
    ("C[C@@H]1CN([C@@H](C)CO)C(=O)c2cc(NC(=O)Nc3cccc4ccccc34)ccc2O[C@@H](C)CCCCO[C@H]1CN(C)Cc1ccccc1", 112),
    ("C[C@@H]1CCCCO[C@H](CN(C)C(=O)Nc2ccc(C(F)(F)F)cc2)[C@@H](C)CN([C@@H](C)CO)C(=O)c2cc(NC(=O)Nc3cccc4ccccc34)ccc2O1", 87.4),
    ("C[C@@H]1CCCCO[C@H](CN(C)C(=O)c2ccccc2)[C@@H](C)CN([C@H](C)CO)C(=O)c2cc(NC(=O)Nc3cccc4ccccc34)ccc2O1", -46.1),
    ("C[C@@H]1CCCCO[C@@H](CN(C)Cc2ccccc2)[C@H](C)CN([C@H](C)CO)C(=O)c2cc(NC(=O)Nc3cccc4ccccc34)ccc2O1", 112),
    ("C[C@H]1CCCCO[C@H](CN(C)Cc2ccccc2)[C@@H](C)CN([C@@H](C)CO)C(=O)c2cc(NC(=O)c3ccccc3)ccc2O1", 102),
    ("C[C@@H]1CCCCO[C@@H](CN(C)C(=O)Nc2ccc(F)cc2)[C@H](C)CN([C@H](C)CO)C(=O)c2cc(NC(=O)Nc3cccc4ccccc34)ccc2O1", 108),
]
